Target: KRAS WT (Homo sapiens (Human))
Sequence (P01116-2 other isoform, or with tags, fused parts or gaps): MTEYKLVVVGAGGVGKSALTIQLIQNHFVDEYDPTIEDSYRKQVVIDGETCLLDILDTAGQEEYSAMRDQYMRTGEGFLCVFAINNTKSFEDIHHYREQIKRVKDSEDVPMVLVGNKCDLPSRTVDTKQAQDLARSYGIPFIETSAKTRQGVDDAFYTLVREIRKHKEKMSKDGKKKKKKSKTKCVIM
Test: KRAS WT Biochemical Assay, BODIPY-GDP Exchange TR-FRET (Example 501; 3 nM KRAS WT, 3 nM SOS1, 60-minute incubation)
Conditions: read-out: KRas(wt) GDP HTRF IC50
// assign criterion met if IC50 falls strictly below 50 nM, else criterion not met (ties count as criterion not met)

{"columns": ["COMPOUND", "ANSWER_LABEL"],
 "data": [
  ["C#Cc1cccc2cc(O)cc(-c3nc4c5c(nc(OC[C@@]67CCCN6C[C@H](F)C7)nc5c3F)N3C[C@H]5CC[C@H](N5)[C@H]3[C@H](C)O4)c12", "criterion met"],
  ["C#Cc1cccc2cc(O)cc(-c3nc4c5c(nc(OC[C@@]67CCCN6C[C@H](F)C7)nc5c3F)N3C[C@H]5CC[C@H](N5)[C@H]3CO4)c12", "criterion met"],
  ["Nc1nc2c(-c3nc4c5c(ncnc5c3F)N3C[C@H]5CC[C@H](N5)[C@H]3CO4)ccc(F)c2s1", "criterion not met"],
  ["Cc1c(F)c(N)cc(-c2nc3c4c(nc(OC[C@@H]5C[C@@H](F)CN5C)nc4c2F)N2C[C@H]4CC[C@H](N4)[C@H]2[C@H](C)O3)c1C(F)(F)F", "criterion met"],
  ["C#Cc1cccc2cc(O)cc(-c3nc4c5c(nc(OC[C@@]67CCN6CC(F)(F)C7)nc5c3F)N3C[C@H]5CC[C@H](N5)[C@H]3[C@H](C)O4)c12 (single isomer, unassigned)", "criterion met"],
  ["C#Cc1c(F)ccc2cc(O)cc(-c3nc4c5c(nc(OC[C@@]67CCCN6C[C@H](F)C7)nc5c3F)N3C[C@H]5CC[C@H](N5)[C@H]3[C@H](C)O4)c12", "criterion met"],
  ["C#Cc1cccc2cncc(-c3nc4c5c(nc(OC[C@@]67CCCN6C[C@H](F)C7)nc5c3F)N3C[C@H]5CC[C@H](N5)[C@H]3[C@H](C)O4)c12", "criterion not met"],
  ["CCc1cccc2cc(O)cc(-c3nc4c5c(nc(OC[C@@]67CCCN6C[C@H](F)C7)nc5c3F)N3C[C@H]5CC[C@H](N5)[C@H]3CO4)c12", "criterion met"]
]}

Regarding C#Cc1cccc2cc(O)cc(-c3nc4c5c(nc(OC[C@]67CCN6CC(F)(F)C7)nc5c3F)N3C[C@H]5CC[C@H](N5)[C@H]3[C@H](C)O4)c12 (single isomer, unassigned) , kindly confirm whether its IC50 is beneath 50 nM.
criterion met

# check: IC50 < 50 nM for Cc1cc(N)nc(-c2nc3c4c(nc(OC[C@@]56CCCN5C[C@H](F)C6)nc4c2F)N2C[C@H]4CC[C@H](N4)[C@H]2CO3)c1C(F)(F)F
criterion not met

Determine if Oc1cc(-c2nc3c4c(nc(OC[C@@]56CCCN5C[C@H](F)C6)nc4c2F)N2C[C@H]4CC[C@H](N4)[C@H]2CO3)c2c(F)cccc2c1 shows IC50 strictly lower than 50 nM.
criterion met

Check if IC50 falls below 50 nM for C[C@@H]1Oc2nc(-c3cccc4cccc(Cl)c34)c(F)c3nc(OC[C@@]45CCCN4CC4(CC4(F)F)C5)nc(c23)N2C[C@H]3CC[C@H](N3)[C@@H]12 (stereo partly drawn) .
criterion not met

# TODO verify IC50 < 50 nM strictly for this compound: Cc1cc(N)nc(-c2nc3c4c(nc(OC[C@@]56CCCN5CC5(CC5(F)F)C6)nc4c2F)N2C[C@H]4CC[C@H](N4)[C@H]2CO3)c1C(F)(F)F (stereo partly drawn)
criterion met

Take the compound Cc1c(F)c(N)cc(-c2nc3c4c(nc(OC[C@]56CCN5CC(F)(F)C6)nc4c2F)N2C[C@H]4CC[C@H](N4)[C@H]2[C@H](C)O3)c1C(F)(F)F and say whether its IC50 is less than 50 nM.
criterion met

A record lists Cn1ncc2ccc(F)c(-c3nc4c5c(nc(OC[C@@]67CCCN6C[C@H](F)C7)nc5c3F)N3C[C@H]5CC[C@H](N5)[C@H]3CO4)c21 . Is its IC50 below 50 nM?
criterion not met

Lab log: compare recorded IC50 with 50 nM; is it strictly lower for C#Cc1c(F)ccc2cccc(-c3nc4c5c(ncnc5c3F)N3C[C@H]5CC[C@H](N5)[C@H]3[C@H](C)O4)c12 ?
criterion not met

Threshold test, IC50 < 50 nM: C[C@@H]1Oc2nc(-c3cc(N)c(F)c(F)c3C(F)(F)F)c(F)c3nc(OC[C@@]45CCCN4C[C@H](F)C5)nc(c23)N2C[C@H]3CC[C@H](N3)[C@@H]12
criterion met

# check: IC50 < 50 nM for C[C@@H]1Oc2nc(-c3c(C(F)(F)F)ccc(N)c3F)c(F)c3nc(OC[C@@]45CCCN4C[C@H](F)C5)nc(c23)N2C[C@H]3CC[C@H](N3)[C@@H]12
criterion met

###

Listing: pIC50 of selected compounds
Biological target: KRAS G12D (Homo sapiens (Human), UniProt P01116, G12D)
Sequence (P01116-2 other isoform, or with tags, fused parts or gaps G12D): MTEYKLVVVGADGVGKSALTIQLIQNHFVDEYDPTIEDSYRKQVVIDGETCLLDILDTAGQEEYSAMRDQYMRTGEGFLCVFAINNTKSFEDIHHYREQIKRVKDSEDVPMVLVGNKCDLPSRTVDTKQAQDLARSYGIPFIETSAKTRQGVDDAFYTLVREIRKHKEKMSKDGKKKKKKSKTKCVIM
Test: KRAS G12D LoEnz Biochemical Assay, BODIPY-GDP Exchange TR-FRET (SOS1-mediated nucleotide exchange)
Conditions: read-out: KRas (G12D) GDP HTRF IC50
API: returns pIC50 as number; meaning -log10 of concentration in mol/L.

{"columns": ["COMPOUND", "pIC50"],
 "data": [
  ["Cc1c(F)c(N)cc(-c2nc3c4c(nc(OC[C@]5(CN6CC7(COC7)C6)CC5(F)F)nc4c2F)N2C[C@H]4CC[C@H](N4)[C@H]2[C@H](C)O3)c1C(F)(F)F (mixture of isomers) [165 a]", 10.10],
  ["Cc1c(F)c(N)c(F)c(-c2nc3c4c(nc(OC[C@@]56CCCN5C[C@H](F)C6)nc4c2F)N2C[C@H]4CC[C@H](N4)[C@H]2[C@H](C)O3)c1CC(F)F", 8.47],
  ["Oc1cc(-c2nc3c4c(nc(OC[C@@]56CCCN5C[C@H](F)C6)nc4c2F)N2C[C@H]4CC[C@H](N4)[C@H]2CO3)c2c(F)cccc2c1", 9.92]
]}

Which value of pIC50 has been reported for Cc1c(F)c(N)cc(-c2nc3c4c(nc(OC[C@@H]5C[C@H]6COCCN65)nc4c2F)N2C[C@H]4CC[C@H](N4)[C@H]2[C@H](C)O3)c1C(F)(F)F (single isomer, unassigned) [159 (diast. 2)] in the records?
9.64

I would be grateful if you could share the reported pIC50 for Cc1c(F)c(N)cc(-c2nc3c4c(nc(OCC56C[C@@H](F)CN5C[C@H](F)C6)nc4c2F)N2C[C@H]4CC[C@H](N4)[C@H]2[C@H](C)O3)c1C(F)(F)F .
9.85

State the recorded pIC50 for this entry: Cc1nc(N)cc(-c2nc3c4c(nc(OCC5(CN6C[C@H](F)C[C@H](F)C6)CC5)nc4c2F)N2C[C@H]4CC[C@H](N4)[C@H]2[C@H](C)O3)c1C(F)(F)F
9.38

What pIC50 value was documented for this compound, Cc1cc(-c2nc3c4c(nc(OC[C@@]56CCCN5C[C@H](F)C6)nc4c2F)N2C[C@H]4CC[C@H](N4)[C@H]2[C@H](C)O3)c(F)c(N)n1 ?
6.90

Form field: reported pIC50 of Cc1c(F)c(N)cc(-c2nc3c4c(nc(OC[C@@]5(CCF)CCCN5C)nc4c2F)N2C[C@H]4CC[C@H](N4)[C@H]2[C@H](C)O3)c1C(F)(F)F (single isomer, unassigned) [127 (isomer 1)]
9.85

Requested field: pIC50. Item: Cc1nc(N)c(Cl)c(-c2nc3c4c(nc(OC[C@@]56CCCN5C[C@H](F)C6)nc4c2F)N2C[C@H]4CC[C@H](N4)[C@H]2[C@H](C)O3)c1C(F)(F)F
9.34

Given the compound Cc1nc(N)cc(-c2nc3c4c(nc(OC[C@@]56CCN5CC(F)(F)C6)nc4c2F)N2C[C@H]4CC[C@H](N4)[C@H]2[C@H](C(F)(F)F)O3)c1C(F)(F)F (single isomer, unassigned) [252 (isomer 1)] , what is its reported pIC50?
8.93

# get_value(readout='pIC50', item= Cc1nc(N)cc(-c2nc3c4c(nc(OCC5(CN6C[C@@H](C)O[C@@H](C)C6)CC5)nc4c2F)N2C[C@H]4CC[C@H](N4)[C@H]2[C@H](C)O3)c1C(F)(F)F )
9.54

Could you tell me which pIC50 is on file for C#Cc1cccc2cc(O)cc(-c3nc4c5c(nc(OC[C@@]67CCN6CC(F)(F)C7)nc5c3F)N3C[C@H]5CC[C@H](N5)[C@H]3[C@H](C)O4)c12 (single isomer, unassigned) ?
9.92

Reported pIC50 for Cc1c(F)c(N)cc(-c2nc3c4c(nc(OCCCN5CCOCC5)nc4c2F)N2C[C@H]4CC[C@H](N4)[C@H]2[C@H](C)O3)c1C(F)(F)F : what is it?
9.38

What value of pIC50 has been reported for the following compound? C[C@@H]1Oc2nc(-c3cc(N)cc(F)c3C(F)(F)F)c(F)c3nc(OCC4CCC5N4CCOC5(C)C)nc(c23)N2C[C@H]3CC[C@H](N3)[C@@H]12 (some centres unmarked)
9.26
